test: Mouse plasma PK after oral gavage; assay type: in vivo; details: female, CD1, mouse, mice, 10 mg/kg PO
Observed property: AUC(0-t) (ng·h/mL)
Your answer is read as ng·h/mL, so omit the unit and give the number.

Solved cases (2 shown):
Given smiles: Cc1nc(N)c2c(-c3ccc(NC(=O)[C@H](O)c4cccc(F)c4)cc3C)cn(C)c2n1
AUC(0-t) / ng·h/mL: 37500
--
Given smiles: Cc1nc(N)c2c(-c3cc(F)c(NC(=O)[C@H](O)c4cccc(F)c4)cc3C)cn(C)c2n1
AUC(0-t) / ng·h/mL: 39800

Now for another entry.
Any idea what its AUC(0-t) is? The molecule is Cc1nc(N)c2c(-c3ccc(NC(=O)[C@H](O)c4cc(F)cc(F)c4)cc3C)cn(C)c2n1 28900

====

experiment: Metabolic clearance in hepatocytes, human; type: in vitro ADME; settings: male, pooled cryopreserved human hepatocytes (ten donors), read-out: Hepatocyte Clearance (t1/2 min) Human
met if half-life at 1 µM is below 6 h. not met if not; exact matches included in not met.

Given smiles: Cc1nc(N)c2c(-c3ccc(NC(=O)[C@H](O)c4cc(F)cc(F)c4)cc3C)cn(C)c2n1
Label value: not met
//
Given smiles: Cc1nc(N)c2c(-c3ccc(NC(=O)[C@H](O)c4cccc(F)c4)c(F)c3C)cn(C)c2n1
Label value: not met
//
Given smiles: Cc1nc(N)c2c(-c3ccc(NC(=O)[C@H](O)c4cccc(F)c4)cc3C)cn(C)c2n1
Label value: not met
//
Given smiles: Cc1nc(N)c2c(-c3ccc(NC(=O)[C@H](O)c4cc(F)cc(C(F)(F)F)c4)cc3C)cn(C)c2n1
Label value: met

Lab note: half-life at 1 µM threshold 6 h. Does this molecule come in strictly under it? Cc1cc(F)cc([C@@H](O)C(=O)Nc2ccc(-c3cn(C)c4nc(C)nc(N)c34)c(C)c2)c1 met

====

experiment: Mouse plasma PK after oral gavage; type: in vivo; details: female, CD1, mouse, mice, 10 mg/kg PO
Observed property: AUC(0-t) (ng·h/mL)
Your answer is read as ng·h/mL, so omit the unit and give the number.

Compound: Cc1nc(N)c2c(-c3ccc(NC(=O)[C@H](O)c4cccc(Cl)c4)cc3C)cn(C)c2n1 [Compound 28]
Numeric result: 65800
--
Compound: Cc1nc(N)c2c(-c3ccc(NC(=O)[C@H](O)c4cccc(F)c4)c(F)c3C)cn(C)c2n1 [Compound 65]
Numeric result: 40100
--
Compound: Cc1nc(N)c2c(-c3ccc(NC(=O)[C@H](O)c4cc(F)cc(C(F)(F)F)c4)cc3C)cn(C)c2n1 [Compound 39]
Numeric result: 86400
--
Compound: Cc1nc(N)c2c(-c3ccc(NC(=O)[C@H](O)c4cccc(C(F)(F)F)c4)cc3C)cn(C)c2n1 [Compound 26]
Numeric result: 126000

Any idea what its AUC(0-t) is? The compound is Cc1cc(F)cc([C@@H](O)C(=O)Nc2ccc(-c3cn(C)c4nc(C)nc(N)c34)c(C)c2)c1 [Compound 41] 26000

Field entry: Cc1nc(N)c2c(-c3ccc(NC(=O)[C@H](O)c4cccc(F)c4)c(F)c3F)cn(C)c2n1 [Compound 70] 32300

Field entry: Cc1nc(N)c2c(-c3ccc(NC(=O)[C@H](O)c4cccc(Cl)c4)cc3F)cn(C)c2n1 [Compound 48] 10900
